target: Nurr1 (Homo sapiens); construct: expressed in transfected cells; host or cells: HEK293T; experiment: Gal4-Nurr1 hybrid reporter gene assay; type: cell-based; conditions: Gal4-Nurr1 hybrid reporter gene assay, HEK293T cells; mean ± S.E.M., n ≥ 3
For each record, check the reported EC50: if it is below 200 nM write t, else write f.

{"Compound": "[2H]C([2H])([2H])Oc1cccc(-c2c(F)c(F)c(NC(=O)c3cscc3-c3noc(=O)[nH]3)c(F)c2F)c1 [compound 21]", "Discrete label": "t"}
{"Compound": "[2H]C([2H])([2H])Oc1cccc(-c2c(F)c(F)c(NC(=O)c3ccsc3S(C)(=N)=O)c(F)c2F)c1 (centres unmarked) [compound 16]", "Discrete label": "f"}
{"Compound": "[2H]C([2H])([2H])Oc1cccc(-c2c(F)c(F)c(NC(=O)C3=C(c4nn[nH]n4)COC3)c(F)c2F)c1 [compound 30]", "Discrete label": "f"}
{"Compound": "[2H]C([2H])([2H])Oc1cccc(-c2c(F)c(F)c(NC(=O)c3cscc3-c3nn[nH]n3)c(F)c2F)c1 [compound 22]", "Discrete label": "t"}
{"Compound": "[2H]C([2H])([2H])Oc1cccc(-c2c(F)c(F)c(NC(=O)c3cscc3-c3noc(=S)[nH]3)c(F)c2F)c1 [compound 23]", "Discrete label": "t"}
{"Compound": "[2H]C([2H])([2H])Oc1cccc(-c2c(F)c(F)c(NC(=O)c3cscc3-c3n[nH]c(=S)o3)c(F)c2F)c1 [compound 27]", "Discrete label": "t"}
{"Compound": "[2H]C([2H])([2H])Oc1cccc(-c2c(F)c(F)c(NC(=O)c3ccsc3S(C)(=O)=O)c(F)c2F)c1 [compound 15]", "Discrete label": "f"}
{"Compound": "COc1cccc(-c2ccc(NC(=O)C3=C(c4nn[nH]n4)CCC3)c(F)c2)c1 [compound 32]", "Discrete label": "t"}
{"Compound": "[2H]C([2H])([2H])Oc1cccc(-c2c(F)c(F)c(NC(=O)c3ccsc3-c3c(O)c(=O)c3=O)c(F)c2F)c1 [compound 17]", "Discrete label": "t"}
{"Compound": "[2H]C([2H])([2H])Oc1cccc(-c2c(F)c(F)c(NC(=O)c3ccsc3-c3noc(=O)[nH]3)c(F)c2F)c1 [compound 18]", "Discrete label": "t"}
{"Compound": "[2H]C([2H])([2H])Oc1cccc(-c2c(F)c(F)c(NC(=O)c3cscc3C3=NOS(=O)N3)c(F)c2F)c1 (centres unmarked) [compound 28]", "Discrete label": "t"}
{"Compound": "[2H]C([2H])([2H])Oc1cccc(-c2c(F)c(F)c(NC(=O)c3ccsc3-c3nn[nH]n3)c(F)c2F)c1 [compound 19]", "Discrete label": "t"}
{"Compound": "[2H]C([2H])([2H])Oc1cccc(-c2c(F)c(F)c(NC(=O)c3ccsc3S(=O)(=O)NC(C)=O)c(F)c2F)c1 [compound 14]", "Discrete label": "f"}
{"Compound": "[2H]C([2H])([2H])Oc1cccc(-c2c(F)c(F)c(NC(=O)c3cscc3-c3nc(=O)on3C)c(F)c2F)c1 [compound 24]", "Discrete label": "f"}

---

molecular target: Nurr1 (Homo sapiens); construct: expressed in transfected cells; host or cells: HEK293T; assay: Gal4-Nurr1 hybrid reporter gene assay; type: cell-based; conditions: Gal4-Nurr1 hybrid reporter gene assay; fold activation vs untreated control
Please mark Y if the recorded max. activation (Nurr1) is equal to or greater than 2 fold, and N if it falls below.

{"Compound": "[2H]C([2H])([2H])Oc1cccc(-c2c(F)c(F)c(NC(=O)c3ccsc3-c3nn[nH]n3)c(F)c2F)c1 [compound 19]", "Target": "Nurr1 (Homo sapiens)", "Discrete label": "Y"}
{"Compound": "[2H]C([2H])([2H])Oc1cccc(-c2c(F)c(F)c(NC(=O)c3ccsc3S(C)(=N)=O)c(F)c2F)c1 (centres unmarked) [compound 16]", "Target": "Nurr1 (Homo sapiens)", "Discrete label": "Y"}
{"Compound": "[2H]C([2H])([2H])Oc1cccc(-c2c(F)c(F)c(NC(=O)c3ccsc3S(=O)(=O)NC(C)=O)c(F)c2F)c1 [compound 14]", "Target": "Nurr1 (Homo sapiens)", "Discrete label": "N"}
{"Compound": "[2H]C([2H])([2H])Oc1cccc(-c2c(F)c(F)c(NC(=O)c3cscc3-c3n[nH]c(=O)o3)c(F)c2F)c1 [compound 26]", "Target": "Nurr1 (Homo sapiens)", "Discrete label": "N"}
{"Compound": "[2H]C([2H])([2H])Oc1cccc(-c2c(F)c(F)c(NC(=O)c3cscc3-c3n[nH]c(=S)o3)c(F)c2F)c1 [compound 27]", "Target": "Nurr1 (Homo sapiens)", "Discrete label": "N"}
{"Compound": "[2H]C([2H])([2H])Oc1cccc(-c2c(F)c(F)c(NC(=O)c3ccsc3S(N)(=O)=O)c(F)c2F)c1 [compound 13]", "Target": "Nurr1 (Homo sapiens)", "Discrete label": "Y"}
{"Compound": "[2H]C([2H])([2H])Oc1cccc(-c2c(F)c(F)c(NC(=O)c3cscc3-c3noc(=S)[nH]3)c(F)c2F)c1 [compound 23]", "Target": "Nurr1 (Homo sapiens)", "Discrete label": "N"}
{"Compound": "[2H]C([2H])([2H])Oc1cccc(-c2c(F)c(F)c(NC(=O)c3cscc3-c3nc(=S)on3C)c(F)c2F)c1 [compound 25]", "Target": "Nurr1 (Homo sapiens)", "Discrete label": "Y"}
{"Compound": "[2H]C([2H])([2H])Oc1cccc(-c2c(F)c(F)c(NC(=O)c3ccsc3-c3noc(=O)[nH]3)c(F)c2F)c1 [compound 18]", "Target": "Nurr1 (Homo sapiens)", "Discrete label": "N"}
{"Compound": "[2H]C([2H])([2H])Oc1cccc(-c2c(F)c(F)c(NC(=O)c3cscc3C3=NOS(=O)N3)c(F)c2F)c1 (centres unmarked) [compound 28]", "Target": "Nurr1 (Homo sapiens)", "Discrete label": "Y"}
{"Compound": "[2H]C([2H])([2H])Oc1cccc(-c2c(F)c(F)c(NC(=O)c3cscc3-c3nc(=O)on3C)c(F)c2F)c1 [compound 24]", "Target": "Nurr1 (Homo sapiens)", "Discrete label": "N"}
{"Compound": "[2H]C([2H])([2H])Oc1cccc(-c2c(F)c(F)c(NC(=O)c3cscc3-c3nn[nH]n3)c(F)c2F)c1 [compound 22]", "Target": "Nurr1 (Homo sapiens)", "Discrete label": "Y"}

---

molecular target: Nurr1 (Homo sapiens, UniProt P43354); construct: expressed in transfected cells; host or cells: HEK293T; experiment: Gal4-Nurr1 hybrid reporter gene assay; format: cell-based; details: IC50(DHODH) / EC50(Nurr1)
Sequence (P43354 360-595 limits assumed): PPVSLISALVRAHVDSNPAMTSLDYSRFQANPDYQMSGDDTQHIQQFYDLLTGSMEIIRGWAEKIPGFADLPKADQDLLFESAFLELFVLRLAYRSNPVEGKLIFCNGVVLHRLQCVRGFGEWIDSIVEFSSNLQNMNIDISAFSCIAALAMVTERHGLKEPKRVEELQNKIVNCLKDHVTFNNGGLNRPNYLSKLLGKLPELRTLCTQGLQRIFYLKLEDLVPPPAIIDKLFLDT
Class key for selectivity index DHODH/Nurr1 values: lower range (below 4), middle range (4 to below 9), upper range (9 or more)

{"Compound structure": "[2H]C([2H])([2H])Oc1cccc(-c2c(F)c(F)c(NC(=O)c3cscc3-c3nc(=S)on3C)c(F)c2F)c1", "Discrete label": "upper range"}
{"Compound structure": "[2H]C([2H])([2H])Oc1cccc(-c2c(F)c(F)c(NC(=O)c3ccccc3-c3nn[nH]n3)c(F)c2F)c1", "Discrete label": "lower range"}
{"Compound structure": "[2H]C([2H])([2H])Oc1cccc(-c2c(F)c(F)c(NC(=O)c3ccsc3S(=O)(=O)NC(C)=O)c(F)c2F)c1", "Discrete label": "middle range"}
{"Compound structure": "[2H]C([2H])([2H])Oc1cccc(-c2c(F)c(F)c(NC(=O)c3cscc3-c3noc(=O)[nH]3)c(F)c2F)c1", "Discrete label": "upper range"}
{"Compound structure": "[2H]C([2H])([2H])Oc1cccc(-c2c(F)c(F)c(NC(=O)c3cscc3-c3nc(=O)on3C)c(F)c2F)c1", "Discrete label": "middle range"}
{"Compound structure": "COc1cccc(-c2ccc(NC(=O)C3=C(c4nn[nH]n4)CCC3)c(F)c2)c1", "Discrete label": "upper range"}
{"Compound structure": "[2H]C([2H])([2H])Oc1cccc(-c2c(F)c(F)c(NC(=O)c3cscc3-c3n[nH]c(=S)o3)c(F)c2F)c1", "Discrete label": "middle range"}
{"Compound structure": "[2H]C([2H])([2H])Oc1cccc(-c2c(F)c(F)c(NC(=O)C3=C(c4nn[nH]n4)COC3)c(F)c2F)c1", "Discrete label": "upper range"}
{"Compound structure": "[2H]C([2H])([2H])Oc1cccc(-c2c(F)c(F)c(NC(=O)c3ccsc3S(N)(=O)=O)c(F)c2F)c1", "Discrete label": "lower range"}
{"Compound structure": "[2H]C([2H])([2H])Oc1cccc(-c2c(F)c(F)c(NC(=O)c3cscc3-c3n[nH]c(=O)o3)c(F)c2F)c1", "Discrete label": "middle range"}
{"Compound structure": "[2H]C([2H])([2H])Oc1cccc(-c2c(F)c(F)c(NC(=O)c3cscc3-c3noc(=S)[nH]3)c(F)c2F)c1", "Discrete label": "lower range"}
